Cited source: the supplement of paper PMC10126150

Provide the recorded switch fluorescence ratio for the entries that follow.
Test system: ATP;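 also: ATP exposure 15 min at 22 °C before imaging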
Test: switch fluorescence ratio, 500 uM ATP over buffer (Cy3 cluster intensity, sum of 5 cycles each) (fold (ratio)); higher = stronger signal-on switching upon ATP binding; sequences stand for … in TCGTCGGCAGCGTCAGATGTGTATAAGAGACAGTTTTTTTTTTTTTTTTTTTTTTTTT…TC
Conditions: aptamer strand: ATP DNA aptamer (quencher-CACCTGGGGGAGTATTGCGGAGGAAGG + anchor), 100 nM annealed; ATP concentration: 500 uM
Give bare numbers.

Example cases with answers are listed next.
{"seq_text": "GGTGAAAACG", "switch fluorescence ratio": 0.991}
{"seq_text": "TTTTTCAGGT", "switch fluorescence ratio": 0.997}

Kindly give each listed record's switch fluorescence ratio.
1. TTTTGGGCTG
2. AAAGTTTTGG
3. TGCCAATATG
4. TTTACAATCG

Result block:
1
0.985
1.06
0.99

For every record below, what is its switch fluorescence ratio?
1. GATTTTGT
2. ATGATAGAGA
3. AGTTGTAGTT
4. GGAAGATGGG
5. TGCGTCAAAT

Result block:
1. 0.969
2. 1.06
3. 0.972
4. 0.99
5. 0.999

###

Answer each item with its documented switch fluorescence ratio.
Tested on: ATP;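 also: ATP exposure 15 min at 22 °C before imaging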
Assay: switch fluorescence ratio, 500 uM ATP over buffer (Cy3 cluster intensity, sum of 5 cycles each) (fold (ratio)); higher = stronger signal-on switching upon ATP binding; sequences stand for … in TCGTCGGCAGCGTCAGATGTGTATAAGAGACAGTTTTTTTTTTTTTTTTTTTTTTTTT…TC
Conditions: aptamer strand: ATP DNA aptamer (quencher-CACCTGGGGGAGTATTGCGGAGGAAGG + anchor), 100 nM annealed; ATP concentration: 500 uM
Numbers only.

{"seq_text": "ATCGAATTGG", "subject_of_test": "ATP", "switch fluorescence ratio": 0.998}
{"seq_text": "CAGGCTTTTT", "subject_of_test": "ATP", "switch fluorescence ratio": 1}
{"seq_text": "GGACTGTGGG", "subject_of_test": "ATP", "switch fluorescence ratio": 1.02}
{"seq_text": "ATATGTCAAG", "subject_of_test": "ATP", "switch fluorescence ratio": 1}
{"seq_text": "CGACAAGAAC", "subject_of_test": "ATP", "switch fluorescence ratio": 2.94}

Please state switch fluorescence ratio for every sequence in the list that follows.
1. AGTTAGTTTG
2. TCTTTTATGG
3. TTTAAGGTGG
4. CTAGCTGTAG
5. CGTTATCGTC
6. TAAGGTATTA
7. AACTTAACGA

Result block:
0.961
1.04
1.02
1.04
0.99
0.972
1.07

Count: 5. Required value per item: switch fluorescence ratio.
1. CGGGGCTGGA
2. TCAGGGATT
3. ATAGTTATGG
4. TGTTGATTGT
5. CGGGGTGCCG

Result block:
[0.984, 1.01, 0.992, 0.983, 0.988]

Give measured switch fluorescence ratio for every item shown.
1. AATTATTTTA
2. AGGGATGCGG
3. AAGGGGTAAT
4. TACTATTTTT
5. CATTGATATG
6. CCGTGTAAGC
7. TTTGGGGTCA
8. TATTGTAACC

Result block:
[1.02, 0.996, 0.967, 1, 0.991, 1.34, 1, 1.03]

Give me switch fluorescence ratio for each of these sequences, listed below.
1. GCATGGGTAC
2. GCATGATTTA
3. GGTAGAGGGA
4. GCATGGTTAA
5. GAGTCTGGGG

Result block:
1: 1.05; 2: 1; 3: 0.978; 4: 1.02; 5: 0.978
